biological target: anti-A014 antibody (Thyroglobulin PET); experiment: peptide competition assay in 6% BSA
Where no end group is shown, it is not given here.
experimental.readout: IC50 (nM)
Answer with a number only, understood to be in nM.

### Prompt # lookup: IC50 of CEIYDTIFAGLD-NH2 [A014 peptide (Thyroglobulin), …-NH2]
### Response 5
